system.name: T1, RasGAP SH2-SH3-SH2 construct (residues 174 to 444), R194C (human, UniProt P20936 174-444, R194C | C236S | C261S | C372S | C402S)
T1 sequence: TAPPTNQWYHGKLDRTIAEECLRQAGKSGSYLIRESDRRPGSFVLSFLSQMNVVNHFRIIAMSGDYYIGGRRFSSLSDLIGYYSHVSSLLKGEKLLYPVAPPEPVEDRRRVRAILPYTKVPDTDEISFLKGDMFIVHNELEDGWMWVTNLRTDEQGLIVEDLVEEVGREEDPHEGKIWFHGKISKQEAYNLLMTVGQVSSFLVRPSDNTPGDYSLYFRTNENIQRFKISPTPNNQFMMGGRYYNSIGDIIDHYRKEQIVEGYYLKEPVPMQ
measurement.notes: ITC; replicate, Figure S7 panel D
[ ]: non-standard residue; d: D form. pY = N[C@@H](Cc1ccc(OP(=O)(O)O)cc1)C(=O)O
measure.name: Kd (nM)
Answers are plain numbers, in nM.

Any idea what its Kd is? The binder is Ac-DPSD[pY]AEPMDAVVKPRNEEENI[pY]SVPHDS-NH2 (p190RhoGAP (ARHGAP35), UniProt Q9NRY4, residues 1083-1111, 29 amino acids; also called p190RhoGAP peptide; ARHGAP35 peptide; source: synthetic peptide, bought: GenScript) [p190RhoGAP phosphopeptide, residues 1083 to 1111 (pY1087, pY1105)]
7.23

From: paper PMC13311836
